The reported measurements were obtained from patent US10849907B2.

Molecular target: human BCRP (Homo sapiens, UniProt Q9UNQ0)
Construct: expressed in transfected cells; host or cells: MDCKII (Madin-Darby canine kidney) cells
Sequence (Q9UNQ0 whole entry): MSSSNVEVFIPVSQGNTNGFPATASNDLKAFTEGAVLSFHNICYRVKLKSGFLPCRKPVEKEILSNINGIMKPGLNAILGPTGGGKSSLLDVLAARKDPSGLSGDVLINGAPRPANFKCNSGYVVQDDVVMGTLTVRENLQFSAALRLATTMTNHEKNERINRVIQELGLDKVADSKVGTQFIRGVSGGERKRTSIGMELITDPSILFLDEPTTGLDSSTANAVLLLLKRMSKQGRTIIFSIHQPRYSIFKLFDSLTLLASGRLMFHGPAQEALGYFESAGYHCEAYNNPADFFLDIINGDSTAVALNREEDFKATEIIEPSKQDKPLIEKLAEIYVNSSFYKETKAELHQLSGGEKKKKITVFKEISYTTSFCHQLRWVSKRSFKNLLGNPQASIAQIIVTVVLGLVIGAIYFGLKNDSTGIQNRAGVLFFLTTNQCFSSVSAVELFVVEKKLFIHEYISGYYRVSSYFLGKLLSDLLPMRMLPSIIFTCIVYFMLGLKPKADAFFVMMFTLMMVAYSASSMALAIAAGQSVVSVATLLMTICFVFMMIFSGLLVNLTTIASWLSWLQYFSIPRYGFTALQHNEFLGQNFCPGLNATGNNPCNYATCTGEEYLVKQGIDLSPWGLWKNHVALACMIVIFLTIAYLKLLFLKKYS
Experiment: MDCK assay BCRP: permeability across MDCK-BCRP monolayers
Assay type: in vitro ADME
Settings: pH 7.4, MDCK-BCRP, Papp (b-a) divided by Papp (a-b)
Description: The MDCK assays provide information on the potential of a compound to pass the blood brain barrier. Permeability measurements across polarized, confluent MDCK-MDR1 cell monolayers grown on permeable filter supports are used as an in vitro absorption model: apparent permeability coefficients (PE) of the compounds across the MDCK-MDR1 cell monolayers are measured (pH 7.4, 37° C.) in apical-to-basal (AB) and basal-to-apical (BA) transport direction. […]
# efflux ratio annotations
Just the number, please, no unit attached.

molecule | readoutLabel | observed
O=C(OCc1ccc(F)cc1Cl)N1CCO[C@H](c2nc3cccnc3[nH]2)C1 [Example 13] | efflux ratio | 0.9

What the record says about O=C(OCc1cccc(F)c1F)N1CCO[C@H](c2nc3cccnc3[nH]2)C1 [Example 15] : efflux ratio is 2.8

What the record says about O=C(OCc1ccccc1Cl)N1CCO[C@H](c2nc3cccnc3[nH]2)C1 [Example 14] : efflux ratio is 1.2

What the record says about Cc1ccc(COC(=O)N2CCO[C@H](c3nc4cc(F)cnc4[nH]3)C2)cc1 [Example 31] : efflux ratio is 0.7

What the record says about Cc1ccc(COC(=O)N2CCO[C@H](c3nc4cccnc4[nH]3)C2)cc1 [Example 18] : efflux ratio is 1.2

----------
Biological target: NMDA NR1/NR2B receptor (Homo sapiens, UniProt Q05586+Q13224)
Sequence (Q13224 27-1484, other chains not shown): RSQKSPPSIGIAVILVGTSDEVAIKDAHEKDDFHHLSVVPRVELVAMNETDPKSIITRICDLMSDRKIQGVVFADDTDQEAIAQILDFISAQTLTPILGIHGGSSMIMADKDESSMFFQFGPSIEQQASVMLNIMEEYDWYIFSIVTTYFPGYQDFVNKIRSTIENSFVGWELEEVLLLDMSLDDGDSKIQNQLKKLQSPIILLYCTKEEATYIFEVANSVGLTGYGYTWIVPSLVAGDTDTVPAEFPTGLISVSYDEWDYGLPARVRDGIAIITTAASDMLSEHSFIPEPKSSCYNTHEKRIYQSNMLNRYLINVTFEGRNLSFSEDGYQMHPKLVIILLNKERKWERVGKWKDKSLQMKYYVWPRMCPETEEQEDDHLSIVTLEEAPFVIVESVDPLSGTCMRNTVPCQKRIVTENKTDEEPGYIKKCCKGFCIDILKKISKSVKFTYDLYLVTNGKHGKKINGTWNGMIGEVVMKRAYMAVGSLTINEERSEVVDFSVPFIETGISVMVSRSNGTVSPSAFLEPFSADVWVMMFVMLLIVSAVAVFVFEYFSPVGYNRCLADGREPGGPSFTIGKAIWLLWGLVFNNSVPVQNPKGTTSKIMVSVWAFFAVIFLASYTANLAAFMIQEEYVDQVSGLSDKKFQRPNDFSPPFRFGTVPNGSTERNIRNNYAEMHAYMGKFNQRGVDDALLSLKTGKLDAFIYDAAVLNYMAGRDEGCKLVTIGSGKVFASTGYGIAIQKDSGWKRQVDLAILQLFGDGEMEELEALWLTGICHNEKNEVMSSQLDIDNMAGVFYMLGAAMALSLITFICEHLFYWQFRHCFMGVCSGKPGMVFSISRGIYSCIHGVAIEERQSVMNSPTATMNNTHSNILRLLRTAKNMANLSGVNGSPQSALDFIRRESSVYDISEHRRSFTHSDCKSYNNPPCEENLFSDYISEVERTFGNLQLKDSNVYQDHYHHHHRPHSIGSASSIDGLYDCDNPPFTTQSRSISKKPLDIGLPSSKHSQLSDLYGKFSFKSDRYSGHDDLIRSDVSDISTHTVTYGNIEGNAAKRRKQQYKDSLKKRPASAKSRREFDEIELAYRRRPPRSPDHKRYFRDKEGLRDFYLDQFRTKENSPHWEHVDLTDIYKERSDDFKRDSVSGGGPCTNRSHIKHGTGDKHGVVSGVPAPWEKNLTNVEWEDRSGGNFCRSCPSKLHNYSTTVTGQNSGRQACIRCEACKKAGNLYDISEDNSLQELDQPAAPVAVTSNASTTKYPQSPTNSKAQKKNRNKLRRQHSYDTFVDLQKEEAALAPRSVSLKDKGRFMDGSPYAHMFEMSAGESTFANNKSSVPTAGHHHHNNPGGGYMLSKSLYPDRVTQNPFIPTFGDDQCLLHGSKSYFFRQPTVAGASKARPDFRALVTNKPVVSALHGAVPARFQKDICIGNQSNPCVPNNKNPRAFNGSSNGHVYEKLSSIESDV
Experiment: In vitro NMDA NR1/NR2b cell assay (FLIPR, intracellular calcium induced by glycine/glutamate)
Details: HEK293 cells expressing NMDA NR1/NR2B, 20 μM glycine, 1 μM glutamate, compounds of the invention (Table 1)
# IC50 annotations
Output should be the measured figure followed by the unit it is expressed in.

compound | observed
Cc1cc(F)ccc1COC(=O)N1CCO[C@H](c2nc3cccnc3[nH]2)C1 [Example 4] | 0.228 µM
Cc1ccccc1COC(=O)N1CCO[C@H](c2nc3cccnc3[nH]2)C1 [Example 8] | 0.404 µM
O=C(OCc1ccc(F)cc1F)N1CCO[C@H](c2nc3cccnc3[nH]2)C1 [Example 19] | 0.128 µM
Cc1ccc(COC(=O)N2CCO[C@H](c3nc4cccnc4[nH]3)C2)c(F)c1 [Example 11] | 0.055 µM

What the record says about O=C(OCc1ccccc1F)N1CCO[C@H](c2nc3cccnc3[nH]2)C1 [Example 27] : IC50 is 0.095 µM

What the record says about O=C(OCc1ccccc1Cl)N1CCO[C@H](c2nc3cccnc3[nH]2)C1 [Example 14] : IC50 is 0.121 µM

What the record says about Cc1ccc(COC(=O)N2CCO[C@H](c3nc4cccnc4[nH]3)C2)cc1 [Example 18] : IC50 is 0.054 µM

What the record says about O=C(OCc1ccc(Cl)c(F)c1)N1CCO[C@H](c2nc3cccnc3[nH]2)C1 [Example 25] : IC50 is 0.477 µM

What the record says about O=C(OCc1cccc(F)c1)N1CCO[C@H](c2nc3cccnc3[nH]2)C1 [Example 1] : IC50 is 0.409 µM

----------
Molecular target: human MDR1 (P-gp) (Homo sapiens, UniProt P08183)
Construct: expressed in transfected cells; host or cells: MDCKII (Madin-Darby canine kidney) cells
Sequence (P08183 whole entry): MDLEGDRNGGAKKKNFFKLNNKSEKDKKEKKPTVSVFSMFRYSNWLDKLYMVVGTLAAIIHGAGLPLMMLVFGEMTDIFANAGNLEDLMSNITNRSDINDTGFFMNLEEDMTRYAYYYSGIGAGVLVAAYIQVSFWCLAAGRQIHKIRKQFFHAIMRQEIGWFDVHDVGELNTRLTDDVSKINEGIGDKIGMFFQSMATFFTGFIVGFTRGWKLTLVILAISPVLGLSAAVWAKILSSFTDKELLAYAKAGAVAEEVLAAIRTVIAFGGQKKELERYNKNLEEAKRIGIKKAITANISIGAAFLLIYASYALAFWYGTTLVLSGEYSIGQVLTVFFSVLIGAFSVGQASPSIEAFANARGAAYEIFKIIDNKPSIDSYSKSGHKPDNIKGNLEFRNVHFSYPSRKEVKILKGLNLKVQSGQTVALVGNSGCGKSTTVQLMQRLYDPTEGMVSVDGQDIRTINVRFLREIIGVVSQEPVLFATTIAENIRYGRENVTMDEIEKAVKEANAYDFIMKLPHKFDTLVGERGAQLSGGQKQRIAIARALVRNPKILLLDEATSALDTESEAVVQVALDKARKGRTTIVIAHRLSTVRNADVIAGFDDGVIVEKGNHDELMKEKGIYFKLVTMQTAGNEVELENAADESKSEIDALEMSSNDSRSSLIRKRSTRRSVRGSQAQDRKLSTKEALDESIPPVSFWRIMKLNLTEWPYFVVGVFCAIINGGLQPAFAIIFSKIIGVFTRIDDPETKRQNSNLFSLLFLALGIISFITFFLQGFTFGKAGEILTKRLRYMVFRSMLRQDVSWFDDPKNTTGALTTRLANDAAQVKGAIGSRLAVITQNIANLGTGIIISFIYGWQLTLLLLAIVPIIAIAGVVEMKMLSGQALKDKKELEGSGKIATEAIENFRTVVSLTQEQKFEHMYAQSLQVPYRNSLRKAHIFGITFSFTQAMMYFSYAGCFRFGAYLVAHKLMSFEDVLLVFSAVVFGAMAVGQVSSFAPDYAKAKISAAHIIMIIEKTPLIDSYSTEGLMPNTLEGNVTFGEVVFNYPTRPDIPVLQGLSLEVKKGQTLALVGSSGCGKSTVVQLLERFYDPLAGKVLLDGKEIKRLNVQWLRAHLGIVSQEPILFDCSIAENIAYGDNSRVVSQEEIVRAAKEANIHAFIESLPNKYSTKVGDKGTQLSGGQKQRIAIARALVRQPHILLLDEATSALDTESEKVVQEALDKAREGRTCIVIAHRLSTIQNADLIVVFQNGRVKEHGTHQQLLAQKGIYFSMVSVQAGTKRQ
Experiment: MDCK assay MDR-1 (p-GP): permeability across MDCK-MDR1 monolayers
Format: in vitro ADME
Conditions: MDCK-MDR1 monolayers, apical-to-basal, pH 7.4, 1 or 10 μM
# Papp A→B annotations

Sample records with Papp A→B:
compound | system | Papp A→B
Cc1cccc(F)c1COC(=O)N1CCO[C@H](c2nc3cccnc3[nH]2)C1 [Example 10] | human MDR1 (P-gp) (Homo sapiens, UniProt P08183) | 37 ×10⁻⁶ cm/s
O=C(OCc1ccc(C(F)F)cc1)N1CCO[C@H](c2nc3cccnc3[nH]2)C1 [Example 26] | human MDR1 (P-gp) (Homo sapiens, UniProt P08183) | 32 ×10⁻⁶ cm/s
Cc1ccnc2[nH]c([C@@H]3CN(C(=O)OCc4ccc(F)cc4)CCO3)nc12 [Example 6] | human MDR1 (P-gp) (Homo sapiens, UniProt P08183) | 44.4 ×10⁻⁶ cm/s
O=C(OCc1ccc(F)cc1F)N1CCO[C@H](c2nc3cccnc3[nH]2)C1 [Example 19] | human MDR1 (P-gp) (Homo sapiens, UniProt P08183) | 42 ×10⁻⁶ cm/s

What the record says about O=C(OCc1ccc(F)cc1)N1CCO[C@H](c2nc3cccnc3[nH]2)C1 [Example 2] : Papp A→B is 31.5 ×10⁻⁶ cm/s
